- Measured On: T1, Ubc2 (Saccharomyces cerevisiae), wild type (Saccharomyces cerevisiae, UniProt P06104 3-152)
- T1 sequence: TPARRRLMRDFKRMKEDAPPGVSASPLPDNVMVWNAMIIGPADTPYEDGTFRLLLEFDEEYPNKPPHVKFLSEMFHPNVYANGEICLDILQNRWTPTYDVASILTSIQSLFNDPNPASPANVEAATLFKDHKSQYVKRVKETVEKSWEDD
- Procedure Summary: ITC
pKd: −log10 of the molar value.

{"Binder": "KERKRRLAKKHQARLLAKFNNQQTKFMKEHESEFDE (peptide, UniProt P19812 1165-1200, looked up) [U2BR peptide (Ubr1 1165-1200)]", "pKd": 6.84}

These measurements were taken from paper PMC8798225.
